Data origin, for the record: PubChem BioAssay (NCI)

# Test system: SNB-75 CNS
# RUN DESCRIPTION: NCI tumour cell line growth inhibition, 48 h
This section presents compounds with their documented TGI values.

{"COMPOUND": "COn1cc(C=O)c2ccccc21", "UNIT INFO": "µM", "COMPARISON SIGN": ">", "TGI": 95.1}
{"COMPOUND": "CC(=O)OCC1OC([S-])C(OC(C)=O)C(OC(C)=O)C1OC(C)=O.CC[PH+](CC)CC.CC[PH+](CC)CC.[Au].[Au] (stereo not given)", "UNIT INFO": "µM", "COMPARISON SIGN": "=", "TGI": 1.16}
{"COMPOUND": "Cc1cccc(/C=N/NC(=S)NCCc2ccccn2)n1", "UNIT INFO": "µM", "COMPARISON SIGN": "=", "TGI": 75}
{"COMPOUND": "C#C[C@]1(O)CC[C@H]2[C@@H]3CC=C4c5sc(Nc6ccccc6)nc5CC[C@]4(C)[C@H]3CC[C@@]21C", "UNIT INFO": "µM", "COMPARISON SIGN": "=", "TGI": 7.41}
{"COMPOUND": "O=C1c2cc3c(cc2CC12Cc1cc4c(cc1C2=O)CCC4)CCCC3 (stereo not given)", "UNIT INFO": "µM", "COMPARISON SIGN": ">", "TGI": 100}
